Where do these numbers come from? They come from PubChem BioAssay AID1628.

Assay: decrease of insulin promoter-GFP reporter – imaging, high-content screening, mouse beta cells (AID 1628)
Details: MIN6 insulin promoter GFP reporter, at 5 µM, active compounds read low
Screen size: about 190,000 compounds; about 930 (0.49%) were called active. This is one part of the list. Entries with a potency or affinity are not part of this list.
Documented z-score across a set of molecules
Answer with a bare number; do not write a unit.

// solved cases for z-score follow
>>> val("O=C(NC(Nc1nc2ccc([N+](=O)[O-])cc2s1)(C(F)(F)F)C(F)(F)F)c1cccnc1")
-3.96
>>> val("c1csc(-c2ccnc3ncnn23)c1")
-4.89
>>> val("CCCCNC(=S)NC(=O)c1ccc(Cl)cc1Cl")
3.14
>>> val("CC(Cc1c[nH]c2ccccc12)C(=O)O (stereo unspecified)")
0
>>> val("C=CCn1c(-c2oc3nc(-c4ccccc4)cc(-c4ccccc4)c3c2N)n[nH]c1=S")
5.57

[ask] Recall and state the measured z-score for Nc1c(C(=O)NC2CCCC2)sc2nc(-c3cccs3)ccc12 .
[reply] 3.89

[ask] Recall and state the measured z-score for N#C/C(=C\c1ccc(N2CCCCC2)o1)C(N)=O .
[reply] 7.37

[ask] Recall and state the measured z-score for O=C(O)c1cc([N+](=O)[O-])c(NCCC2=CCCCC2)c([N+](=O)[O-])c1 .
[reply] 0.74

[ask] Recall and state the measured z-score for Fc1ccc(C2NCCn3cccc32)cc1 (stereo unspecified) .
[reply] 3.94

[ask] Recall and state the measured z-score for Cc1ccc(-n2c(Cc3cccs3)nnc2SCC(=O)OC(C)C)cc1 .
[reply] 3.05

[ask] Recall and state the measured z-score for COc1ccc(C(=O)c2sc3nc(-c4ccccc4)ccc3c2N)cc1OC .
[reply] 5.8

* * *

Assay: decrease of insulin promoter-GFP reporter – imaging, high-content screening, mouse beta cells (AID 1628)
Settings: MIN6 insulin promoter GFP reporter, at 5 µM, active compounds read low
Hit rate of the full screen: of about 190,000 compounds, about 930 (0.49%) were called active. The list shows a part of the results. Potency and affinity values are given separately.
Classification scheme (z-score): lower bin = under 2, middle bin = from 2 up to 4, upper bin = 4 and over

>>> group("Cc1cccc2cc3c(N)c(C(=O)N4CCc5ccccc54)sc3nc12")
"upper bin"
>>> group("Cc1cccc(Nc2nc(N)nc(CN3CCN(c4ccccc4)CC3)n2)c1")
"lower bin"
>>> group("CCOc1ccc2nc(NCCCNS(=O)(=O)c3ccc(C)cc3)c(C#N)cc2c1")
"lower bin"
>>> group("COc1ccc(CN(CC2CCC(C(=O)O)CC2)C(=S)Nc2cccc(C)c2)cc1 (stereo not given)")
"middle bin"

[ask] Place this compound in its band: O=c1oc2cc(O)ccc2cc1-c1nc2c(s1)CCc1ccccc1-2
[reply] upper bin

[ask] Place this compound in its band: CC1(C)Cc2c(ccc3ccccc23)C(c2cc3ccccc3oc2=O)=N1
[reply] upper bin

[ask] Place this compound in its band: CC(=O)Nc1nc(-c2ccc(Br)s2)cs1
[reply] upper bin

* * *

Assay: decrease of insulin promoter-GFP reporter – imaging, high-content screening, mouse beta cells (AID 1628)
Conditions: MIN6 insulin promoter GFP reporter, at 5 µM, active compounds read low
About 930 (0.49%) of roughly 190,000 compounds were called active. The list shows a part of the results. Entries with a potency or affinity are not part of this list.
observation_type: z-score

// solved cases for z-score follow
>>> val("Oc1c(/C=C/C=C/C=Nc2ccccc2)sc(=S)n1Cc1ccccc1")
"3.27 (inactive)"
>>> val("Cc1cc(C)nc(N(C#N)CC(=O)N2CCC(C(N)=O)CC2)n1")
"1.53 (inactive)"
>>> val("CC1(C)NC(=O)N(CCCCOc2ccc3c(c2)CCC3)C1=O")
"-1.15 (inactive)"
>>> val("CCS(=O)(=O)c1ccc2oc(SCC(=O)NC3CCCC(C)C3C)nc2c1 (stereo unspecified)")
"4.28 (inactive)"
>>> val("N#Cc1c2c(c(-n3cnc4ccccc43)n3c1nc1ccccc13)CCC2")
"4.79 (inactive)"

Now consider a different compound.
[ask] Recall and state the measured z-score for Cn1ccnc1Sc1nc(Nc2cccc(Cl)c2)nc(N2CCOCC2)n1 .
[reply] -0.82 (inactive)
